Assay: yeast growth modulation, basal conditions, primary screen, YJM789 clinical isolate, OD600, 24 h (AID 1089);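 further: growth of clinical yeast isolate S. cerevisiae YJM 789 seeded 1000 cells per well; test concentration not given here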
Settings: S. cerevisiae YJM789 growth, higher = more signal, called active from +8 up or from −8 down
quantityName: z-score
A bare number is all that is needed in reply.

Record excerpt, results attached:
CCCNC(=O)[C@@]1(c2ccc([N+](=O)[O-])cc2)CC(=O)N(CC23CC4CC(CC(C4)C2)C3)[C@@H]1c1ccc(CO)cc1; -0.057
O=c1cccc(CCc2ccccc2)o1; -0.951
COc1ccc(C(=O)Nc2cccc(CN3C(=O)[C@]4(O[C@H](CC(=O)N5CCC[C@H]5CO)[C@@H]([Si](C)(C)c5ccc(OC)cc5)[C@@H]4C)c4ccccc43)c2)cc1; -0.979
O=C1O[C@H](c2ccccc2)[C@H](c2ccccc2)N2[C@H]1[C@@H](C(=O)N1CCN(c3ncccn3)CC1)[C@]1(C(=O)Nc3ccccc31)[C@H]2c1ccc(OCCO)cc1; 2.72
CC(C)(C)OC(=O)CC[C@@]1(C(=O)NCCN2CCOCC2)N=C(c2ccc(OCCCO)cc2)O[C@@H]1c1ccccc1; -0.444

Query :: If you can, please state the reported z-score value of `COCCOC(=O)N1C(=O)[C@@]2(c3cc(C#CCC(C(=O)OC)C(=O)OC)ccc31)[C@H](c1ccccc1OCCO)N1[C@H](c3ccccc3)[C@H](c3ccccc3)OC(=O)[C@H]1[C@@H]2C(N)=O` .
Result :: 1.47

Query :: Consider the compound `O=C1O[C@@H](c2ccccc2)[C@@H](c2ccccc2)N2[C@@H](c3ccc(OCCO)cc3)[C@]3(C(=O)Nc4ccccc43)[C@@H](C(=O)Nc3nc4ccccc4s3)[C@H]12` and give its measured z-score.
Result :: 1.46

Query :: Requested field: z-score. Item: CCCCC(O)C1C=CC2C(=O)N(C3CCCCC3)C(=O)C2N1Nc1ccc(OC)cc1 (stereo not drawn)
Result :: 0.595

Query :: Name the recorded z-score for `O=C1O[C@H](c2ccccc2)[C@H](c2ccccc2)N2[C@H]1[C@@H](C(=O)O)[C@]1(C(=O)Nc3ccc(C#CC4(O)CCCCCC4)cc31)[C@H]2c1ccc(OCCO)cc1` .
Result :: 2.28

Query :: Look at this compound and give its reported z-score. CC(C)N1CC=CC23O[C@@H]4C=CCOC(=O)[C@@H]4[C@H]2C(=O)N(CCO)[C@@H]3C1=O (stereo partly drawn)
Result :: 1.14

Query :: Can you share its z-score? I mean this compound: `Cc1ccc(S[C@]2(C(=O)NCc3ccccc3)CC(=O)N(Cc3ccccc3Cl)[C@@H]2c2ccc(CO)cc2I)cc1`
Result :: -3.68

Query :: Sample O=C1OCCC=C[C@H]2OC34C=CCN(c5ccc6ccccc6c5)C(=O)[C@H]3N(CCCCCO)C(=O)[C@@H]4C12 (stereo partly drawn) — what was its z-score?
Result :: -0.748
